Ki: recorded values
# testedTarget: Kappa-type opioid receptor (Homo sapiens)
The response must be a number in nM with no trailing unit.

>>> assayresult("CC(C)CN(C(=O)CCN1CC[C@@](C)(c2cccc(O)c2)[C@@H](C)C1)[C@@H](Cc1ccccc1)C(=O)O")
2200

Which Ki is reported for this compound? C[C@H]1CN(C[C@H](Cc2ccccc2)C(=O)N[C@@H](Cc2ccc3ccccc3c2)C(=O)O)CC[C@@]1(C)c1cccc(O)c1
240

Same read-out for C[C@H]1CN(C[C@H](Cc2ccccc2)C(=O)N[C@@H](Cc2ccc(-c3ccccc3)cc2)C(=O)O)CC[C@@]1(C)c1cccc(O)c1 ?
160

Same read-out for C[C@H](NC(=O)[C@@H](Cc1ccccc1)CN1CC[C@@](C)(c2cccc(O)c2)[C@@H](C)C1)C(=O)O ?
67

###

# testedTarget: Kappa-type opioid receptor (Homo sapiens)
# assayName: Displacement of [3H]diprenorphine from human cloned kappa opioid receptor at 10 uM
Use TRUE when the recorded inhibition is no lower than 30%; use FALSE when it is lower.

# example entries with known answers
>>> assignedclass("C[C@H]1CN(CCC(=O)N[C@@H](CCCCN)C(=O)O)CC[C@@]1(C)c1cccc(O)c1")
"FALSE"
>>> assignedclass("C[C@H]1CN(CCC(=O)NCC(=O)O)CC[C@@]1(C)c1cccc(O)c1")
"FALSE"
>>> assignedclass("CCN(C(=O)CCN1CC[C@@](C)(c2cccc(O)c2)[C@@H](C)C1)[C@@H](Cc1ccccc1)C(=O)O")
"TRUE"
>>> assignedclass("C[C@H]1CN(C[C@H](Cc2ccccc2)C(=O)N[C@@H](CCC(=O)O)C(=O)O)CC[C@@]1(C)c1cccc(O)c1")
"FALSE"
>>> assignedclass("C[C@H]1CN(CCC(=O)N[C@@H](CC2CCCCC2)C(=O)O)CC[C@@]1(C)c1cccc(O)c1")
"TRUE"
>>> assignedclass("C[C@H]1CN(C[C@H](Cc2ccccc2)C(=O)N[C@@H](CC(=O)O)C(=O)O)CC[C@@]1(C)c1cccc(O)c1")
"FALSE"
>>> assignedclass("C[C@H]1CN(CCC(=O)N(C)[C@@H](Cc2ccccc2)C(=O)O)CC[C@@]1(C)c1cccc(O)c1")
"TRUE"

Moving on to the next molecule.
Decide: is the reported value of inhibition for C[C@H]1CN(CCC(=O)N[C@@H](Cc2ccccc2)C(=O)O)CC[C@@]1(C)c1cccc(O)c1 equal to or greater than 30%?
TRUE

###

# testedTarget: Delta-type opioid receptor (Homo sapiens, UniProt P41143)
# Sequence (P41143 whole entry): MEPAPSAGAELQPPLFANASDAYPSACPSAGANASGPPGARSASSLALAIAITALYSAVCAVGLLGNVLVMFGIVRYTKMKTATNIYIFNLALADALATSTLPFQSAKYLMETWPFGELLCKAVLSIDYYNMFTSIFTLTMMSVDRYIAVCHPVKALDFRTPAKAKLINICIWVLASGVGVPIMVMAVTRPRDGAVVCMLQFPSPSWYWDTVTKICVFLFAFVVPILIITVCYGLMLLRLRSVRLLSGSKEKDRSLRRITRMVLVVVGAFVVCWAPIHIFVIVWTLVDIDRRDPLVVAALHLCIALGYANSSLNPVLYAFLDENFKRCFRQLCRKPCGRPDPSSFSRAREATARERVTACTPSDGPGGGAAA
# assayName: Displacement of [3H]diprenorphine from human cloned delta opioid receptor
log10 of Ki: recorded values
# values: log10(Ki), units µM

>>> assayresult("C[C@H]1CN(C[C@H](Cc2ccccc2)C(=O)N[C@@H](Cc2ccc(-c3ccccc3)cc2)C(=O)O)CC[C@@]1(C)c1cccc(O)c1")
-2.08
>>> assayresult("C[C@H]1CN(CCC(=O)N(Cc2ccc(-c3ccccc3)cc2)[C@@H](Cc2ccccc2)C(=O)O)CC[C@@]1(C)c1cccc(O)c1")
-1.28
>>> assayresult("C[C@H]1CN(C[C@H](Cc2ccccc2)C(=O)N[C@@H](CC2CCCCC2)C(=O)O)CC[C@@]1(C)c1cccc(O)c1")
-1.82
>>> assayresult("C[C@H]1CN(C[C@H](Cc2ccccc2)C(=O)N[C@@H](CC(=O)O)C(=O)O)CC[C@@]1(C)c1cccc(O)c1")
-0.30
>>> assayresult("C[C@H]1CN(CCC(=O)N(Cc2ccccc2)[C@@H](Cc2ccccc2)C(=O)O)CC[C@@]1(C)c1cccc(O)c1")
-1.41

// below: log10 of Ki requested for another compound
Which log10 of Ki is reported for this compound? C[C@H]1CN(C[C@H](Cc2ccccc2)C(=O)N[C@@H](Cc2cccc3ccccc23)C(=O)O)CC[C@@]1(C)c1cccc(O)c1
-1.51

###

// endpoint pKi / system Kappa-type opioid receptor (Homo sapiens, UniProt P41145)
Note on pKi: it is the negative log10 of concentration, concentration in mol/L.

Consider the worked cases shown below.
>>> assayresult("C[C@H]1CN(CCC(=O)N[C@@H](Cc2ccc(-c3ccccc3)cc2)C(=O)O)CC[C@@]1(C)c1cccc(O)c1")
5.96
>>> assayresult("C[C@H]1CN(CCC(=O)N[C@@H](CCc2ccccc2)C(=O)O)CC[C@@]1(C)c1cccc(O)c1")
6.16
>>> assayresult("C[C@H]1CN(C[C@H](Cc2ccccc2)C(=O)N[C@@H](CC2CCCCC2)C(=O)O)CC[C@@]1(C)c1cccc(O)c1")
6.14
>>> assayresult("C[C@H]1CN(C[C@H](Cc2ccccc2)C(=O)N[C@@H](Cc2ccccc2)C(=O)O)CC[C@@]1(C)c1cccc(O)c1")
6.60
>>> assayresult("C[C@H]1CN(C[C@H](Cc2ccccc2)C(=O)N[C@@H](Cc2cccc3ccccc23)C(=O)O)CC[C@@]1(C)c1cccc(O)c1")
7.08

Which pKi is reported for this compound? C[C@H]1CN(CCC(=O)N(CC2CC2)[C@@H](Cc2ccccc2)C(=O)O)CC[C@@]1(C)c1cccc(O)c1
5.66

Same read-out for C[C@H]1CN(CCC(=O)N(Cc2ccccc2)[C@@H](Cc2ccccc2)C(=O)O)CC[C@@]1(C)c1cccc(O)c1 ?
6.26

###

# testedTarget: Kappa-type opioid receptor (Homo sapiens, UniProt P41145)
# Sequence (P41145 whole entry): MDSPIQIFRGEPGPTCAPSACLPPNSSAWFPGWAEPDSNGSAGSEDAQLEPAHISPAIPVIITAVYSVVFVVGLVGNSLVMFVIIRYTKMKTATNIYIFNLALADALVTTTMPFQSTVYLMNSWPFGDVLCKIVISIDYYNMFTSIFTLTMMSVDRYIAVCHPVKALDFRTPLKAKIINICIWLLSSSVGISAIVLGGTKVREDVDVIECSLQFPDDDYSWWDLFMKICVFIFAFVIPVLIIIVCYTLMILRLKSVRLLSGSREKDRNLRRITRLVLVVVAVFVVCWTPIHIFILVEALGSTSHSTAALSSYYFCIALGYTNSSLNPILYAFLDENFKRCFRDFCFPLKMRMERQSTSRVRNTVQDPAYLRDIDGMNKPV
pKi: recorded values
Note on pKi: it is the negative log10 of concentration, concentration in mol/L.

>>> assayresult("C[C@H]1CN(C[C@H](Cc2ccccc2)C(=O)NCC(=O)O)CC[C@@]1(C)c1cccc(O)c1 [ALVIMOPAN]")
7.00
>>> assayresult("C[C@H]1CN(CCC(=O)N(CCc2ccccc2)[C@@H](Cc2ccccc2)C(=O)O)CC[C@@]1(C)c1cccc(O)c1")
5.92
>>> assayresult("C[C@H]1CN(CCC(=O)N(Cc2cccc(Cl)c2)[C@@H](Cc2ccccc2)C(=O)O)CC[C@@]1(C)c1cccc(O)c1")
6.34
>>> assayresult("C[C@H]1CN(CCC(=O)N(c2ccccc2)[C@@H](Cc2ccccc2)C(=O)O)CC[C@@]1(C)c1cccc(O)c1")
5.85
>>> assayresult("C[C@@H](NC(=O)[C@@H](Cc1ccccc1)CN1CC[C@@](C)(c2cccc(O)c2)[C@@H](C)C1)C(=O)O")
6.04
>>> assayresult("C[C@H]1CN(CCC(=O)N(Cc2ccc(-c3ccccc3)cc2)[C@@H](Cc2ccccc2)C(=O)O)CC[C@@]1(C)c1cccc(O)c1")
6.64

// below: pKi requested for another compound
Which pKi is reported for this compound? C[C@H]1CN(C[C@H](Cc2ccccc2)C(=O)N[C@@H](CCc2ccccc2)C(=O)O)CC[C@@]1(C)c1cccc(O)c1
6.29
